test system: S. aureus A-9537; test: Minimum Inhibitory Concentration, tube dilution; format: cell-based; conditions: Staphylococcus aureus, A9537, overnight 37° C.; table 6; read-out: MIC
List of MIC values.
Please reply with the bare figure in ng/mL and do not write the unit itself.

Lookup: // lookup MIC for C[C@@H](O)[C@H]1C(=O)N2C(C(=O)[O-])=C(SCC[n+]3cccc(CO)c3)C[C@H]12 [Example 5]
Found: 30

Lookup: Request the reported MIC associated with C[C@@H](O)[C@H]1C(=O)N2C(C(=O)[O-])=C(SCC[n+]3cccc(N)c3)C[C@H]12 [Example 14]
Found: 8

Next:
Lookup: // query MIC value for entry CSc1cc[n+](CCSC2=C(C(=O)[O-])N3C(=O)[C@H]([C@@H](C)O)[C@H]3C2)cc1 [Example 9]
Found: 8

Lookup: Fill blank: measured MIC of the compound CSc1n(C)cc[n+]1CCSC1=C(C(=O)[O-])N2C(=O)[C@H]([C@@H](C)O)[C@H]2C1 [Example 13] is ____.
Found: 8

Lookup: Would you mind telling me what MIC value was observed for CSc1ccc[n+](CCSC2=C(C(=O)[O-])N3C(=O)[C@H]([C@@H](C)O)[C@H]3C2)c1 [Example 11] ?
Found: 4

Lookup: Which MIC is listed for C[C@@H](O)[C@H]1C(=O)N2C(C(=O)[O-])=C(SCC[n+]3ccc(CO)cc3)C[C@H]12 [Example 6] ?
Found: 30

Lookup: I have this compound here, Cc1cc[n+](CCSC2=C(C(=O)[O-])N3C(=O)[C@H]([C@@H](C)O)[C@H]3C2)cc1 [Example 8] , and I need its recorded MIC.
Found: 30

----------
Recorded ED50, one value per entry.
tested on: P. aeruginosa A9843A; assay: animal or person; type: in vivo, mice; settings: Pseudomonas aeruginosa, in Mus musculus, im, read-out: PD50 /treatment

Lookup: Param item = CC(C[n+]1ccccc1)SC1=C(C(=O)[O-])N2C(=O)[C@H]([C@@H](C)O)[C@H]2C1 (single isomer, unassigned) [Ex. 15 (cmp. "A")] ; retrieve measured ED50.
Found: 3.1 mg/kg

Lookup: Recorded ED50 of CSc1ccc[n+](CCSC2=C(C(=O)[O-])N3C(=O)[C@H]([C@@H](C)O)[C@H]3C2)c1 [Example 11] , please.
Found: 2.4 mg/kg

Now examine the next entry.
Lookup: Given C[C@@H](O)[C@H]1C(=O)N2C(C(=O)[O-])=C(SCC[n+]3cccc(N)c3)C[C@H]12 [Example 14] , state its recorded ED50.
Found: 0.78 mg/kg

----------
test: in vivo; details: mouse
ENDPOINT: NOAEL

Lookup: # get_value(readout='NOAEL', item= `C[C@@H](O)[C@H]1C(=O)N2C(C(=O)[O-])=C(SCC[n+]3ccccc3)C[C@H]12` )
Found: > 40 mg/kg

----------
experiment: Half-life in phosphate buffer pH 7.4; format: physicochemical; settings: phosphate buffer; pH 7.4, 36.8° C.; read-out: t1/2 (half-life) (converted)
ENDPOINT: half-life
The number alone won't do; follow it with the unit.

Lookup: Give the measured half-life of CSc1ccc[n+](CCSC2=C(C(=O)[O-])N3C(=O)[C@H]([C@@H](C)O)[C@H]3C2)c1 [Example 11] .
Found: 20 h
